# system.name: T1, human CGRP receptor (human CRLR / human RAMP1 heterodimer) (human, UniProt Q16602 23-461; O60894 27-148)
# T1 construct: Full-length receptor: endogenous on SK-N-MC (HTB-10) cells in the cAMP assay; also called hCGRP receptor on SK-N-MC (HTB-10) cells; Human CGRP Receptor/AMID detergent-solubilized cell lysate
# assay.details: yeast-displayed Fab, FACS, detergent-solubilized lysate of human CGRP receptor-expressing cells vs blank cells
Each record's Human CGRP Receptor/Blank Cells Specific Binding is compared with low: < 10 ratio; middle: ≥ 10 ratio and < 20 ratio; high: ≥ 20 ratio to give its class.

• anti-CGRP receptor variant 10, yeast-displayed Fab (Fab, V domains shown, also called Variant Ab ID 10) VH: QVQLVESGGGVVQPGRSLRLSCAASGFFFGSYGMHWVRQAPGKGLEWVAVISFAGEIEHYVDSVKGRFTISRDNSKNTLFLQMNSLRAEDTAVYYCARDRLNYYESSGYYHYKYYGMAVWGQGTTVTVSS VL: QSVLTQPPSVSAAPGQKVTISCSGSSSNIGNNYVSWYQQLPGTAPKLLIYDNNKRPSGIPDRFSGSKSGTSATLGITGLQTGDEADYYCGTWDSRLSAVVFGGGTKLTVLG = high
• anti-CGRP receptor variant 14, yeast-displayed Fab (Fab, V domains shown, also called Variant Ab ID 14) VH: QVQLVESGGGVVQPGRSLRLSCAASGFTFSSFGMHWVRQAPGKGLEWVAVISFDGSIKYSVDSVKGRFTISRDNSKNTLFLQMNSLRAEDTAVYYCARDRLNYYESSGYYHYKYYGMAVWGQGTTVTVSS VL: QSVLTQPPSVSAAPGQKVTISCSGSSSNIGNNYVSWYQQLPGTAPKLLIYDNNKRPSGIPDRFSGSKSGTSATLGITGLQTGDEADYYCGTWDSWHRVVTFGGGTKLTVLG = middle
• anti-CGRP receptor variant 07, yeast-displayed Fab (Fab, V domains shown, also called Variant Ab ID 07) VH: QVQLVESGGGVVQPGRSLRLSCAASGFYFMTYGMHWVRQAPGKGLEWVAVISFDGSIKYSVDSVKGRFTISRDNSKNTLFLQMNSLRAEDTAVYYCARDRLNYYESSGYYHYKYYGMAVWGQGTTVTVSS VL: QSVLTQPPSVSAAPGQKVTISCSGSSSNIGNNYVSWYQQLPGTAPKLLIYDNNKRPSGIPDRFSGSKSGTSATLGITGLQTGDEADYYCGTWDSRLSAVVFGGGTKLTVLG = middle
• anti-CGRP receptor variant 11, yeast-displayed Fab (Fab, V domains shown, also called Variant Ab ID 11) VH: QVQLVESGGGVVQPGRSLRLSCAASGFWFDTFGMHWVRQAPGKGLEWVAVISFAGEDTHYVDSVKGRFTISRDNSKNTLFLQMNSLRAEDTAVYYCARDRLNYYESYGYYGYHYYGMAVWGQGTTVTVSS VL: QSVLTQPPSVSAAPGQKVTISCSGSRSNIGRYSVSWYQQLPGTAPKLLIYENMFRPRGIPDRFSGSKSGTSATLGITGLQTGDEADYYCGTWDYRMQAVVFGGGTKLTVLG = low
• 4E4.2 parental Fab, yeast-displayed (Fab, V domains shown, also called parental 4E4.2 Fab) VH: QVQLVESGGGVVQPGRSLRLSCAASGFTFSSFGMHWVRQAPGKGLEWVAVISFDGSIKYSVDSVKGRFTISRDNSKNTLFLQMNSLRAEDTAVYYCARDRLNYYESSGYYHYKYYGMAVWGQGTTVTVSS VL: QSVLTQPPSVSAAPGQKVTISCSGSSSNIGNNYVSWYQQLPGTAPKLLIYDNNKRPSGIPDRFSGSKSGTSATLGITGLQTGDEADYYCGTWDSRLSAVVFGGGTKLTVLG = low
• anti-CGRP receptor variant 02, yeast-displayed Fab (Fab, V domains shown, also called Variant Ab ID 02) VH: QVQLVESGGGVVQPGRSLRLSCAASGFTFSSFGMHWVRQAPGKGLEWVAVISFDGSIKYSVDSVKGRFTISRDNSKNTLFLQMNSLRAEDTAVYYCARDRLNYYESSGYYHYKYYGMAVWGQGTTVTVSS VL: QSVLTQPPSVSAAPGQKVTISCSGSRSNIGIKAVSWYQQLPGTAPKLLIYDNNKRPSGIPDRFSGSKSGTSATLGITGLQTGDEADYYCGTWDSRLSAVVFGGGTKLTVLG = middle
• anti-CGRP receptor variant 13, yeast-displayed Fab (Fab, V domains shown, also called Variant Ab ID 13) VH: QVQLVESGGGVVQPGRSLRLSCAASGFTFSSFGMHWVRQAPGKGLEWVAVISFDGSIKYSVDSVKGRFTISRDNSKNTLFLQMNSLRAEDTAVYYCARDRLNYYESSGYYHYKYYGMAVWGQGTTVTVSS VL: QSVLTQPPSVSAAPGQKVTISCSGSRSNIGRRTVSWYQQLPGTAPKLLIYDNNKRPSGIPDRFSGSKSGTSATLGITGLQTGDEADYYCGTWDSRLSAVVFGGGTKLTVLG = middle
• anti-CGRP receptor variant 01, yeast-displayed Fab (Fab, V domains shown, also called Variant Ab ID 01) VH: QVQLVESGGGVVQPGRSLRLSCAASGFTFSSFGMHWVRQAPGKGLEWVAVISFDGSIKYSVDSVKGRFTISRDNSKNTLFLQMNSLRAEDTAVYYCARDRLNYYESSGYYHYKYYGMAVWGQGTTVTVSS VL: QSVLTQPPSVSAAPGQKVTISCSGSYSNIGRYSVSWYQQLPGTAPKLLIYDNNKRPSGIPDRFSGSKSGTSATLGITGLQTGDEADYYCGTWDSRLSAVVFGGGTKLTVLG = high
• anti-CGRP receptor variant 05, yeast-displayed Fab (Fab, V domains shown, also called Variant Ab ID 05) VH: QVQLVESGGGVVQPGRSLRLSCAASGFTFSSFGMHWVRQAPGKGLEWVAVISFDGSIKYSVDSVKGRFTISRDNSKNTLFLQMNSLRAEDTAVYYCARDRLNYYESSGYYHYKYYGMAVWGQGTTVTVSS VL: QSVLTQPPSVSAAPGQKVTISCSGSFSNIGRSTVSWYQQLPGTAPKLLIYDNRWRAGGIPDRFSGSKSGTSATLGITGLQTGDEADYYCGTWDYQWKAVVFGGGTKLTVLG = high
